src = ChEMBL document CHEMBL3885861

# Species on record: Rattus norvegicus
# test-protocol: Open TG-GATES - Regimen: Single
# Assay type: toxicity, organism-based, Sprague-Dawley
# Set-up: regimen Single, gender Male, age 6 weeks
# condition-parameters: in vivo, po, 0 mg/kg, 6 h, tissue Blood, route gavage, dose level Control
Eos listing for selected compounds.
Please reply with the bare figure in % and do not write the unit itself.

Take a look at these entries with their results.
CCOC(=O)CCC(=O)O[C@H]1[C@H](O[C@@H]2[C@@H](C)[C@H](O[C@H]3C[C@@](C)(OC)[C@@H](O)[C@H](C)O3)[C@@H](C)C(=O)O[C@H](CC)[C@@](C)(O)[C@H](O)[C@@H](C)C(=O)[C@H](C)C[C@@]2(C)O)O[C@H](C)C[C@@H]1N(C)C [ERYTHROMYCIN ETHYLSUCCINATE]    0.6
CC1=C(/C=C/C(C)=C/C=C/C(C)=C/CO)C(C)(C)CCC1    0.6
CC/C(=C(\c1ccccc1)c1ccc(OCCN(C)C)cc1)c1ccccc1    1

Moving on to the next compound.
Would you kindly share the measured Eos for `O=C(CCCN1CCC(O)(c2ccc(Cl)cc2)CC1)c1ccc(F)cc1` ?
0.2
